- stated.conditions: buffer; pH 7.4; 200.0 µM
In this section we review reported solubility kinetic values for a set of compounds.
Report only the number, with the unit µg/mL understood.

In the examples that follow, each entry is paired with its recorded solubility kinetic.
Cc1cc(NC(=O)COc2ccccc2C(N)=O)no1
19.7
Br.O=C(Cn1c(NCCO)nc2ccccc21)c1ccc(F)cc1
22.4

Q: Consider the compound shown here: COC(=O)c1c(C)[nH]c(C(=O)C(C)OC(=O)c2ccco2)c1C (centres undefined) What is its recorded solubility kinetic?
Result: 4.5

Q: Consider the compound shown here: Cc1[nH]c2ccccc2c1C(C[N+](=O)[O-])c1cccc(O)c1 (centres undefined) What is its recorded solubility kinetic?
Result: 40.1

Q: Consider the compound shown here: O=C(Nc1ccccc1C(=O)Nc1cccnc1)c1ccccc1 What is its recorded solubility kinetic?
Result: 6.3

Q: Consider the compound shown here: NC(=O)COC(=O)c1ccccc1OCc1ccc(Cl)cc1 What is its recorded solubility kinetic?
Result: 7.2

Q: Consider the compound shown here: O=C1OC(Nc2ccc3ncccc3c2)c2ccccc21 (centres undefined) What is its recorded solubility kinetic?
Result: 4.3

Q: Consider the compound shown here: COc1ccc(N2CCN(C(=O)COC(=O)c3cccc(OC)c3O)CC2)cc1 What is its recorded solubility kinetic?
Result: 7.2

====

In this section we review reported solubility kinetic values for a set of compounds.
- stated.conditions: buffer; pH 7.4; 200.0 µM

CCc1ccc(Nc2ccc3nonc3c2[N+](=O)[O-])cc1
< 0.2 µg/mL

Q: Consider the compound shown here: Cc1[nH]c2ccccc2c1C(=O)C(=O)NC1CC1 What is its recorded solubility kinetic?
Result: > 36.3 µg/mL

Q: Consider the compound shown here: COc1cccc(CNCCc2c[nH]c3ccccc23)c1OC.Cl What is its recorded solubility kinetic?
Result: > 52 µg/mL

Q: Consider the compound shown here: NS(=O)(=O)c1ccc(NC(=O)c2cccc3ccccc23)cc1 What is its recorded solubility kinetic?
Result: 3.1 µg/mL

Q: Consider the compound shown here: O=C(NCc1cccnc1)c1cc(C(=O)C2CC2)c[nH]1 What is its recorded solubility kinetic?
Result: > 40.4 µg/mL

Q: Consider the compound shown here: COc1cc(Cl)c(C)cc1Nc1ncccn1 What is its recorded solubility kinetic?
Result: 22.4 µg/mL

Q: Consider the compound shown here: O=C(CCN1C(=O)C2C3C=CC(C3)C2C1=O)N1CCCCC1 (centres undefined) What is its recorded solubility kinetic?
Result: > 45.4 µg/mL

====

- stated.conditions: buffer; pH 7.4; 200.0 µM
Tick y if solubility kinetic is 10 µg/mL or greater. Tick n if solubility kinetic is less than 10 µg/mL.

Cc1nc(N)[nH]c(=O)c1Oc1cccc(C(F)(F)F)c1
y
Cc1ccccc1NC(=O)CCN1C(=O)c2ccccc2C1=O
y
N#C/C(=C\c1ccc(O)c([N+](=O)[O-])c1)C(=O)NCc1ccccc1
y
Cc1ccc(C)c(NC(=O)C2CC3CCC2C3)c1 (stereo not drawn)
y
COc1cccc(NC(=O)c2ccc3c(c2)CCCC3)c1
n

Q: # bool: solubility kinetic of Cc1ccccc1C(=O)Nc1nc2c(C)csc2c(=O)s1 >= 10 µg/mL
Result: n

Q: # bool: solubility kinetic of Cc1ccc(S(=O)(=O)N2CCOC2C(Cl)(Cl)Cl)cc1 (stereo not drawn) >= 10 µg/mL
Result: n

Q: # bool: solubility kinetic of COC(=O)c1cccc(NC(=O)NC(=O)c2ccccc2Cl)c1 >= 10 µg/mL
Result: n

Entry source: PubChem BioAssay AID1996
